target-under-test: human polymorphonuclear leukocyte elastase (Homo sapiens)
Construct: Crude extract of human polymorphonuclear leukocytes (PMN) containing elastase activity; endogenous in cells; host or cells: human polymorphonuclear leukocytes (crude extract)
Sequence (P08246 30-247 limits assumed): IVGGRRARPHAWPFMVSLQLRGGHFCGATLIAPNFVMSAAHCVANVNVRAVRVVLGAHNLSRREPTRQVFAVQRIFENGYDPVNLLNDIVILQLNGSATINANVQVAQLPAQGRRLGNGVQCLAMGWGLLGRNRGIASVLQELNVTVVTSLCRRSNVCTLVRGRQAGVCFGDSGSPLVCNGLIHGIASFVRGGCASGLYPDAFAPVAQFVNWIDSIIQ
protocol-text: Inhibition of human polymorphonuclear leukocyte (granulocyte) elastase via hydrolysis of Boc-AAPAN or Boc-AAPVN
Assay type: biochemical
details: pH 7.5, Table III, (per mole per second); read-out: kobs/I, second order rate constant of inactivation of the enzyme
Mark Not fulfilled for kinact/KI values under 3000 M⁻¹ s⁻¹, and Fulfilled for everything at or above.

See these solved cases before continuing.
molecule="CCC1(CC)C(=O)N(C(=O)NCc2ccccc2)C1Sc1nc[nH]n1 (stereo not drawn)" target_under_test="human polymorphonuclear leukocyte elastase (Homo sapiens)" label_class="Not fulfilled"
molecule="CCC1(CC)C(=O)N(C(=O)NCc2ccccc2)C1n1cnnn1 (stereo not drawn)" target_under_test="human polymorphonuclear leukocyte elastase (Homo sapiens)" label_class="Not fulfilled"
molecule="CCC(NC(=O)N1C(=O)C(CC)(CC)C1OCC(N)=O)c1ccccc1 (stereo not drawn) [Table III: OCH2CONH2; CH(Et)Ph]" target_under_test="human polymorphonuclear leukocyte elastase (Homo sapiens)" label_class=Fulfilled

Exercise: Entry CCC1(CC)C(=O)N(C(=O)NCc2ccc(C(C)=O)cc2)C1Oc1ccc(C(=O)O)cc1 (stereo not drawn) : is its kinact/KI no less than 3000 M⁻¹ s⁻¹?
Solution: Fulfilled

Exercise: Tell me whether kinact/KI is at least 3000 M⁻¹ s⁻¹ here: CCC1(CC)C(=O)N(C(=O)NCc2ccccc2O)C1Oc1ccc(C(=O)O)cc1 (stereo not drawn)
Solution: Not fulfilled

Exercise: Exam item: decide whether the reported kinact/KI for CCC1(CC)C(=O)N(C(=O)NCc2ccccc2)C1OCC(O)CO (stereo not drawn) is at least 3000 M⁻¹ s⁻¹.
Solution: Not fulfilled

Exercise: Record CCC1(CC)C(=O)N(C(=O)NCc2ccc(C(C)C)cc2)C1Oc1ccc(C(=O)O)cc1 (stereo not drawn) ; criterion: kinact/KI no lower than 3000 M⁻¹ s⁻¹. Met?
Solution: Fulfilled

Exercise: Item CCC1(CC)C(=O)N(C(=O)NCc2ccc(S(C)(=O)=O)cc2)C1Oc1ccc(C(=O)O)cc1 (stereo not drawn) with kinact/KI of 3000 M⁻¹ s⁻¹ or above?
Solution: Fulfilled

Exercise: Quick check, kinact/KI >= 3000 M⁻¹ s⁻¹? CCC1(CC)C(=O)N(C(=O)NCc2ccc(C)c(C)c2)C1Oc1ccc(C(O)C(=O)O)cc1 (stereo not drawn)
Solution: Fulfilled

Exercise: Can CCC1(CC)C(=O)N(C(=O)NCc2ccc(-c3ccccc3)cc2)C1OCC(N)=O (stereo not drawn) be said to have kinact/KI at or above 3000 M⁻¹ s⁻¹?
Solution: Fulfilled

Exercise: Could you tell me if the measured kinact/KI of CCC1(CC)C(=O)N(C(=O)NCc2ccccc2)C1Oc1ccccc1CCCN(C)C (stereo not drawn) reaches 3000 M⁻¹ s⁻¹ or more?
Solution: Not fulfilled
